- system: T1, ECF15_436
- T1 chain: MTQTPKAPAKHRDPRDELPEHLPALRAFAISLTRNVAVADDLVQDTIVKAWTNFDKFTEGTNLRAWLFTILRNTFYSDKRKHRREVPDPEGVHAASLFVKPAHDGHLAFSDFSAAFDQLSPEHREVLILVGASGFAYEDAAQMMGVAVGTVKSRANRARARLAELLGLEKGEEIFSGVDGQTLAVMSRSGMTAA
Exercise: state measured fold repression for each of the binders provided.
Answers are plain numbers.

Example entries begin here.
AS35_3582 (protein) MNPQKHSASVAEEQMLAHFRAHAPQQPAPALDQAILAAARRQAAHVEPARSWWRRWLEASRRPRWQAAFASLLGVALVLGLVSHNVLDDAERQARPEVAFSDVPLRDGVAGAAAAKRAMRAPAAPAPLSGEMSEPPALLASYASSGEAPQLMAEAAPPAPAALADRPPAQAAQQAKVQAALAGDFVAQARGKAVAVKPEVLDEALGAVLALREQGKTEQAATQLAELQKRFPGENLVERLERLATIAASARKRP    7.43
AS15_436 (protein) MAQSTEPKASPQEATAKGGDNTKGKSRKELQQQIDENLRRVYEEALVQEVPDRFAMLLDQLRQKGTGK    46.1

Next up:
Incoming: Requested field: fold repression. Item: AS25_1643_cl43 (protein) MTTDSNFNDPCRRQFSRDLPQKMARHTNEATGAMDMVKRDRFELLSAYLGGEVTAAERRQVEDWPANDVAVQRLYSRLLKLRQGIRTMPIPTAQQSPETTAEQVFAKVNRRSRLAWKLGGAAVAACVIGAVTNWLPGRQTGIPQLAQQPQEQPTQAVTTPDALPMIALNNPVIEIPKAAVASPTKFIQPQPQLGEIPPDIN
Outgoing: 1.2
